Cited source for all entries: PubChem BioAssay

- ASSAY INFO: growth loss of phage-infected RecBCD+ E. coli, confirmation, RecBCD inhibitor project, absorbance, E. coli V66, T4 gene 2 phage (AID 651982)
- RECORDED CONDITIONS: E. coli V66 + T4 2- phage, growth OD; at 11.9 µM
The list shows a part of the results. Calls of active or inactive are those of the source.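 The calls were made as follows: active = mean inhibition over triplicates exceeding the hit threshold derived in the original primary screen (cut at about 11% in these data); inactive = the rest.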
Write down one outcome, taken from TRUE = active, FALSE = inactive

{"CHEMICAL STRING": "ON=C1/C(=N\\O)CC2(C/C1=N/O)OCCO2", "DISCRETE LABEL": "FALSE"}

Request: What outcome does the record of this test show for CC[C@H]1OC(=O)[C@H](C)[C@@H](O[C@H]2C[C@@](C)(OC)[C@@H](O)[C@H](C)O2)[C@H](C)[C@@H](O[C@@H]2O[C@H](C)C[C@H](N(C)C)[C@H]2O)[C@](C)(O)C[C@@H](C)[C@@H]2N[C@@H](COCCOC)O[C@H]([C@H]2C)[C@]1(C)O ?
Result: TRUE

Request: Which result was noted for this compound in the test: CN(O)C(=S)c1ccccc1
Result: TRUE

---

- ASSAY INFO: cytotoxicity in HEK cells, cytotoxicity control for IDE inhibitor project, cell-based, luminescence (AID 449730)
- RECORDED CONDITIONS: HEK293 cytotoxicity, ATP luminescence; at 5.59 µM; hits give high values
This is one part of the list.
Mark condition not met for inhibition values under 20%, and condition met for everything at or above.

Some entries whose results are on file:
{"COMPOUND": "CCN1CCCC1CNc1ncnc2c1[nH]c1ccc(F)cc12 (stereo unspecified)", "DISCRETE LABEL": "condition not met"}
{"COMPOUND": "CCCC(=O)Nc1c(O)c2ccccc2[nH]c1=O", "DISCRETE LABEL": "condition not met"}
{"COMPOUND": "CCOC(=O)CC1C(=O)NCCN1c1nc2c(C)cccn2c(=O)c1/C=C1\\SC(=S)N(C(C)CC)C1=O (stereo unspecified)", "DISCRETE LABEL": "condition met"}
{"COMPOUND": "COc1ccc(N=C(C)c2sc3ccccc3c2O)cc1", "DISCRETE LABEL": "condition not met"}
{"COMPOUND": "COc1cc(/C=C(\\C#N)c2nc3ccccc3[nH]2)ccc1O", "DISCRETE LABEL": "condition met"}
{"COMPOUND": "O=C(/C=C/c1ccc(OCc2c(F)cccc2Cl)cc1)N1CCOCC1", "DISCRETE LABEL": "condition met"}
{"COMPOUND": "Cc1ccc2c(c1)c1ncnc(N3CCc4ccccc4C3)c1n2C", "DISCRETE LABEL": "condition not met"}
{"COMPOUND": "C=CCOc1cccc(C2C(C(=O)c3ccc(C)o3)=C(O)C(=O)N2c2nnc(C)s2)c1 (stereo unspecified)", "DISCRETE LABEL": "condition not met"}

Request: Is it the case that CC1=CC(C)(C)Nc2ccc(OC(=O)CN3C(=O)C4CCCCC4C3=O)cc21 (stereo unspecified) has inhibition reaching or exceeding 20%?
Result: condition met

Request: In plain terms: is recorded inhibition at least 20% for COc1ccc(N2CCN(C(=O)/C(C#N)=C/c3ccccc3)CC2)cc1 ?
Result: condition not met

Request: Determine whether measured inhibition meets or exceeds 20% for O=C(Nc1ccc(Sc2ccc(Br)cc2)cc1)c1ccco1
Result: condition met
